Values from patent US10934267B2

Overview of reported HLPC Total Area Normalization - Area % Purity across a group of molecules:
experiment: Stability of stressed salts and free acid by HPLC total area normalization; details: Oxidation Ambient (oxygen headspace, 25° C., 1 week)

Solved entries:
Cc1c(C)c2c(c(C)c1OCC(=O)O)CCC(C)(CCCC(C)CCCC(C)CCCC(C)C)O2.N=C(N)NCCC[C@H](N)C(=O)O (stereo not drawn) [α-TEA arginine salt] :: 98.4 Area %
Cc1c(C)c2c(c(C)c1OCC(=O)O)CC[C@@](C)(CCC[C@H](C)CCC[C@H](C)CCCC(C)C)O2 [α-TEA free acid, α-tocopheryloxyacetic acid, reference compound] :: 97.8 Area %
Cc1c(C)c2c(c(C)c1OCC(=O)O)CCC(C)(CCCC(C)CCCC(C)CCCC(C)C)O2.NC(CO)(CO)CO (stereo not drawn) [α-TEA tris salt] :: 98.5 Area %

Now look at this one.
# return recorded HLPC Total Area Normalization - Area % Purity for input Cc1c(C)c2c(c(C)c1OCC(=O)O)CCC(C)(CCCC(C)CCCC(C)CCCC(C)C)O2.NCCCC[C@H](N)C(=O)O (stereo not drawn) [α-TEA lysine salt] 98.8 Area %
